This collection of values is drawn from patent US6706663B2.

tested on: ZEAMX (Corn, Field); assay: Preemergence herbicidal evaluation; format: in vivo, Zea mays, L.; settings: Rate 0.0620 kg/ha; preemergence; rated 4-5 weeks after treatment
metricName: ZEAMX preemergence herbicidal rating
Just the number.

For the compound CCc1cc(-c2nsc3ccc(-n4c(=O)cc(C(F)(F)F)n(C)c4=O)cc23)c(CC)s1 , what ZEAMX preemergence herbicidal rating is on record?
0.0

Also need Cc1csc(-c2nsc3ccc(-n4c(=O)cc(C(F)(F)F)n(C)c4=O)cc23)n1 , thanks.
0.0

Also need Cn1c(C(F)(F)F)cc(=O)n(-c2ccc3snc(-c4ccsc4)c3c2)c1=O , thanks.
6.0

Also need Cn1c(C(F)(F)F)cc(=O)n(-c2ccc3snc(-c4cccs4)c3c2)c1=O , thanks.
6.5

Also need CN(C(=O)c1nsc2ccc(-n3c(=O)cc(C(F)(F)F)n(C)c3=O)cc12)c1ccc(Cl)cc1 , thanks.
7.0

Also need Cc1ccc(-c2nsc3ccc(N4C(=O)C5=C(CCCC5)C4=O)cc23)s1 , thanks.
0.0

Also need Cn1ccnc1-c1nsc2ccc(-n3c(=O)cc(C(F)(F)F)n(C)c3=O)cc12 , thanks.
4.0

Also need Cc1ccc(-c2nsc3ccc(-n4c(=O)cc(C(F)(F)F)n(C)c4=O)cc23)s1 , thanks.
1.0

Also need CC(=O)N1CCSC1c1nsc2ccc(-n3c(=O)cc(C(F)(F)F)n(C)c3=O)cc12 (stereo not drawn) , thanks.
5.5

* * *

Give Preemergence herbicidal rating TRZAWR for every item shown.
Tested on: TRZAWR (Wheat, Winter, cv Riband)
Experiment: Preemergence herbicidal evaluation
Assay type: in vivo, Triticum aestivum
Settings: Rate 0.2500 kg/ha; rated 4-5 weeks after treatment
Source text: Results of herbicide evaluation are expressed on a rating scale (0-9). The scale is based upon a visual observation of plant stand, vigor, malformation, size, chlorosis and overall plant appearance as compared with a control. […]
Just the number.

For the molecule CC(C)C1COC(c2nsc3ccc(-n4c(=O)cc(C(F)(F)F)n(C)c4=O)cc23)=N1 (stereo not drawn) [Compound 74] , what Preemergence herbicidal rating TRZAWR is on record?
5.0

Also need Cn1c(C(F)(F)F)cc(=O)n(-c2ccc3snc(C4=NCCO4)c3c2)c1=O [Compound 75] , thanks.
7.0

Also need Cn1c(C(F)(F)F)cc(=O)n(-c2ccc3snc(C4OCC(CCl)O4)c3c2)c1=O (stereo not drawn) [Compound 72] , thanks.
9.0

Also need Cn1c(C(F)(F)F)cc(=O)n(-c2ccc3snc(-c4sccc4Cl)c3c2)c1=O [Compound 52] , thanks.
3.0

Also need Cc1ccc(-c2nsc3ccc(-n4c(=O)cc(C(F)(F)F)n(C)c4=O)cc23)nc1 [Compound 42] , thanks.
5.0

Also need COCC1COC(c2nsc3ccc(-n4c(=O)cc(C(F)(F)F)n(C)c4=O)cc23)O1 (stereo not drawn) [Compound 64] , thanks.
9.0

* * *

test system: ZEAMX (Corn, Field); test: Preemergence herbicidal evaluation; format: in vivo, Zea mays, L.; settings: Rate 0.2500 kg/ha; preemergence; rated 4-5 weeks after treatment
metricName: ZEAMX preemergence herbicidal rating
Just the number.

For the molecule Cn1ccnc1-c1nsc2ccc(-n3c(=O)cc(C(F)(F)F)n(C)c3=O)cc12 , what ZEAMX preemergence herbicidal rating is on record?
7.0

Also need Cn1c(C(F)(F)F)cc(=O)n(-c2ccc3snc(-c4cccnc4)c3c2)c1=O , thanks.
5.5

Also need COC(=O)C(C)Oc1ccsc1-c1nsc2ccc(-n3c(=O)cc(C(F)(F)F)n(C)c3=O)cc12 (stereo not drawn) , thanks.
0.0

* * *

tested on: ECHCG (Echinochloa crus-galli); assay: Postemergence herbicidal evaluation; assay type: in vivo, (L.) Beau; conditions: rate 0.0320 kg/ha
metricName: Postemergence herbicidal rating, ECHCG
Just the number.

For the compound COC(=O)COc1ccsc1-c1nsc2ccc(-n3c(=O)cc(C(F)(F)F)n(C)c3=O)cc12 , what Postemergence herbicidal rating, ECHCG is on record?
0.0

Also need C[C@@H]1OC(c2nsc3ccc(-n4c(=O)cc(C(F)(F)F)n(C)c4=O)cc23)O[C@@H]1C (stereo partly drawn) , thanks.
0.0

Also need Cn1c(C(F)(F)F)cc(=O)n(-c2ccc3snc(C(SCCO)SCCO)c3c2)c1=O , thanks.
1.0

* * *

tested on: ORYSAT (Rice, Tebonnet); experiment: Flooded paddy, post-transplant rice tolerance; format: in vivo, Oryza sativa, (L.) Tebonnet; details: flooded paddy, post-transplant rice; rate 0.0080 kg/ha; rated 3-4 weeks after treatment; 0-9 rating scale
metricName: herbicidal rating, ORYSAT (rice tolerance)
Just the number.

For the compound Cn1c(C(F)(F)F)cc(=O)n(-c2ccc3snc(-c4ccccn4)c3c2)c1=O , what herbicidal rating, ORYSAT (rice tolerance) is on record?
4.0

Also need Cn1c(C(F)(F)F)cc(=O)n(-c2cc3c(C4OCCO4)nsc3cc2F)c1=O , thanks.
8.0

Also need Cn1c(C(F)(F)F)cc(=O)n(-c2ccc3snc(-c4ccsc4)c3c2)c1=O , thanks.
4.0

Also need Cn1c(C(F)(F)F)cc(=O)n(-c2ccc3snc(-c4ccoc4)c3c2)c1=O , thanks.
0.0

Also need Cn1c(C(F)(F)F)cc(=O)n(-c2ccc3snc(C4=NCCO4)c3c2)c1=O , thanks.
2.5

Also need CC(=O)N1CCSC1c1nsc2ccc(-n3c(=O)cc(C(F)(F)F)n(C)c3=O)cc12 (centres unmarked) , thanks.
0.0

Also need Cn1c(C(F)(F)F)cc(=O)n(-c2ccc3snc(C4OCCS4)c3c2)c1=O (centres unmarked) , thanks.
0.0

Also need Cn1c(C(F)(F)F)cc(=O)n(-c2ccc3snc(C4OC(=O)C(C)(C)O4)c3c2)c1=O (centres unmarked) , thanks.
0.0

Also need Cc1nnc(-c2nsc3ccc(-n4c(=O)cc(C(F)(F)F)n(C)c4=O)cc23)s1 , thanks.
0.0

Also need Cc1csc(-c2nsc3ccc(-n4c(=O)cc(C(F)(F)F)n(C)c4=O)cc23)n1 , thanks.
3.0

Also need Cn1c(C(F)(F)F)cc(=O)n(-c2ccc3snc(C4OCCCS4)c3c2)c1=O (centres unmarked) , thanks.
3.0

Also need Cc1cnn(-c2nsc3ccc(-n4c(=O)cc(C(F)(F)F)n(C)c4=O)cc23)c1 , thanks.
0.0

Also need CC1=CC(C)(C)OC(c2nsc3ccc(-n4c(=O)cc(C(F)(F)F)n(C)c4=O)cc23)C1 (centres unmarked) , thanks.
0.0

Also need Cn1c(C(F)(F)F)cc(=O)n(-c2ccc3snc(-c4ccco4)c3c2)c1=O , thanks.
0.0

Also need Cc1ccsc1-c1nsc2ccc(-n3c(=O)cc(C(F)(F)F)n(C)c3=O)cc12 , thanks.
2.0

Also need CN(C(=O)c1nsc2ccc(-n3c(=O)cc(C(F)(F)F)n(C)c3=O)cc12)c1ccc(Cl)cc1 , thanks.
0.0

Also need CC(C)C1COC(c2nsc3ccc(-n4c(=O)cc(C(F)(F)F)n(C)c4=O)cc23)=N1 (centres unmarked) , thanks.
1.5

* * *

test system: MOOVA (Monochoria vaginalis); experiment: Flooded paddy, postemergence weed control; type: in vivo, Presl.; conditions: 0.0620 kg/ha into flood water; postemergence weeds; rated 3-4 weeks after treatment
metricName: herbicide rating (0-9) MOOVA

For the compound Cc1ccc(-c2nsc3ccc(-n4c(=O)cc(C(F)(F)F)n(C)c4=O)cc23)s1 , what herbicide rating (0-9) MOOVA is on record?
9.0

Also need Cn1c(C(F)(F)F)cc(=O)n(-c2ccc3snc(-c4ccsc4)c3c2)c1=O , thanks.
9.0

Also need Cn1c(C(F)(F)F)cc(=O)n(-c2ccc3snc(C4OC(C)(C)C(C)(C)O4)c3c2)c1=O , thanks.
4.0

Also need Cn1c(C(F)(F)F)cc(=O)n(-c2ccc3snc(-c4nccs4)c3c2)c1=O , thanks.
0.0

Also need CCc1cc(-c2nsc3ccc(-n4c(=O)cc(C(F)(F)F)n(C)c4=O)cc23)c(CC)s1 , thanks.
4.5

* * *

test system: GLXMAW (Soybean, Williams); test: Preemergence herbicidal evaluation; format: in vivo, Glycine max, (L.) Merr. cv Williams; details: preemergence, rate 0.2500 kg/ha, rated 4-5 weeks after treatment
metricName: Preemergence herbicidal rating GLXMAW
Just the number.

For the molecule Cn1c(C(F)(F)F)cc(=O)n(-c2ccc3snc(C4OCC(CS(C)(=O)=O)O4)c3c2)c1=O (single isomer, unassigned) , what Preemergence herbicidal rating GLXMAW is on record?
9.0

Also need Cn1c(C(F)(F)F)cc(=O)n(-c2ccc3snc(C4OCC(C[S+](C)[O-])O4)c3c2)c1=O (stereo not shown) , thanks.
9.0

Also need CSCC1COC(c2nsc3ccc(-n4c(=O)cc(C(F)(F)F)n(C)c4=O)cc23)O1 (stereo not shown) , thanks.
9.0

Also need Cn1c(C(F)(F)F)cc(=O)n(-c2ccc3snc(-c4ccoc4)c3c2)c1=O , thanks.
6.0

* * *

test system: IPOHE (Ipomoea hederacea); experiment: Postemergence herbicidal evaluation; format: in vivo, (L.) Jacq.; conditions: rate 0.0620 kg/ha
metricName: Postemergence herbicidal rating, IPOHE
Just the number.

For the compound COC(=O)COc1ccsc1-c1nsc2ccc(-n3c(=O)cc(C(F)(F)F)n(C)c3=O)cc12 [Compound 22] , what Postemergence herbicidal rating, IPOHE is on record?
4.0

Also need Cc1ccc(-c2nsc3ccc(-n4c(=O)cc(C(F)(F)F)n(C)c4=O)cc23)s1 [Compound 21] , thanks.
9.0

Also need Cn1c(C(F)(F)F)cc(=O)n(-c2ccc3snc(C4OCC(C)(C)CO4)c3c2)c1=O [Compound 36] , thanks.
9.0

Also need CN(C(=O)c1nsc2ccc(-n3c(=O)cc(C(F)(F)F)n(C)c3=O)cc12)c1ccc(Cl)cc1 [Compound 18] , thanks.
9.0

Also need Cc1cscc1-c1nsc2ccc(-n3c(=O)cc(C(F)(F)F)n(C)c3=O)cc12 [Compound 26] , thanks.
9.0

Also need CC1CCOC(c2nsc3ccc(-n4c(=O)cc(C(F)(F)F)n(C)c4=O)cc23)O1 (stereo not drawn) [Compound 37] , thanks.
9.0

Also need C#CCOC(=O)COc1ccsc1-c1nsc2ccc(-n3c(=O)cc(C(F)(F)F)n(C)c3=O)cc12 [Compound 39] , thanks.
4.0

Also need COC(=O)C(C)Oc1ccsc1-c1nsc2ccc(-n3c(=O)cc(C(F)(F)F)n(C)c3=O)cc12 (stereo not drawn) [Compound 23] , thanks.
5.0

Also need Cc1ccn(-c2nsc3ccc(-n4c(=O)cc(C(F)(F)F)n(C)c4=O)cc23)n1 [Compound 38] , thanks.
9.0

Also need Cn1c(C(F)(F)F)cc(=O)n(-c2ccc3snc(C4OCCCO4)c3c2)c1=O [Compound 28] , thanks.
9.0

Also need Cc1nnc(-c2nsc3ccc(-n4c(=O)cc(C(F)(F)F)n(C)c4=O)cc23)s1 [Compound 17] , thanks.
9.0

Also need CC(=O)N1CCSC1c1nsc2ccc(-n3c(=O)cc(C(F)(F)F)n(C)c3=O)cc12 (stereo not drawn) [Compound 29] , thanks.
9.0
